assay system: T1, huIL-17RA-FLAG-polyHis (human, UniProt Q96F46 33-320)
T1 construct: also called IL-17RA-FLAG-pHis; wild-type IL-17RA
protocol notes: binning; IL-17RA held by bead mAb L
measured attribute: normalized MFI

binder="AMH20/AML20 (antibody, IgG2, V domains shown, human mAb from IgG2 XenoMouse mice; also called AM-20; antibody R) VH: EVQLVESGGGLVQPGGSLRLSCAASGFTFSSYSMNWVRQAPGKGLEWVSFISARSSTIYYADSVKGRFTISRDNAKNSLYLQMNSLRDEDTAVYYCARPKVGGGMDVWGQGTTVTVSS VL: DIQMTQSPSSLSASVGDRVTITCRASQGISNYLAWYQQKPGKFPELLIYAASTLQSGVPSRFSGSGSGTDFTLTISSLQPEDVATYYCQKYNRAPFTFGPGTKVDIK" recorded_result=15
binder="AMH16/AML16 (antibody, IgG2, V domains shown, human mAb from IgG2 XenoMouse mice; also called AM-16; antibody O) VH: QVQLVQSGAEVKKPGASVKVSCKASGYTFTSYGISWVRQAPGQGLEWMGWISAYNGNTKYAQKLQGRVTMTTDTSTSTVYMELRSLRSDDTAVYYCARKQLVFDYWGQGTLVTVSS VL: EIVMTQSPATLSVSPGERATLSCRASQSISTSLAWYQQKPGQAPRLLIYGTSTRATGIPARFSGSGSGTEFTLTISSLQSEDFAVYFCQQYDIWPLTFGGGTKVEIK" recorded_result=18
binder="AMH11/AML11 (antibody, IgG2, V domains shown, human mAb from IgG2 XenoMouse mice; also called AM-11; antibody A) VH: QVQLVESGGGVVQPGRSLRLSCATSGITFSSYGMHWVRQAPGKGLEWVAVIWYDGSNKYYADSVKGRFTISRDNSKNTLYLQMNSLRAEDTAVYYCARDTKDYWGQGTLVTVSS VL: EIVMTQSPATLSVSPGERATLSCRASQSVSSNLAWYQQKPGQAPRLLIYGASTRAAGIPARFSGGGSGTAFTLTISNLQSEDFAVYYCQHYINWPKWTFGQGTKVDIK" recorded_result=3020
binder="AMH12/AML12 (antibody, IgG2, V domains shown, human mAb from IgG2 XenoMouse mice; also called AM-12; antibody M) VH: QVQLVQSGAEVKKPGASVKVSCKASGYTLTSYGISWVRQAPGQGLEWMGWISTYKGNTNYAQKLQGRVTMTTDTSTSTAYMELRSLRSDDTAVYYCARKQLVFDYWGQGTLVTVSS VL: EIVMTQSPATLSVSPGERATLSCRASQSISSSLAWYQQKPGQAPRLLIYGASTRATGIPARFSGSGSGTEFTLTISSLQSENFAVYYCQQYDNWPLTFGGGTKVEIK" recorded_result=18
binder="AMH8/AML8 (antibody, IgG2, V domains shown, human mAb from IgG2 XenoMouse mice; also called AM-8; antibody C) VH: QVQLVQSGAEVKKPGASVKVSCKASGNTFTGYGISWVRQAPGQGLEWMGWISAYNGNTNYAQNLQGRVTMTTDTSTSTAYMELRSLRSDDTAVYYCARRDYDILTGYYNGFDPWGQGTLVTVSS VL: DIQMTQSPSSLSASVGDRVTITCRASQGIRNDLGWYQQKPGKAPKRLIYAASSLQSGVPSRFSGSGSGTEFTLTISSLQPEDFATYYCLQHKSYPLTFGGGTKVEIK" recorded_result=3540

Just for reference, patent US20120251547A1 is where these values come from.
